System: HCI01 (cells of a triple-negative basal-like breast cancer xenograft)
Assay: cell viability (% of vehicle); higher = less cytotoxic
Settings: 10 µM; 72 h
Label condition met when cell viability is strictly below 100; at or above that, label condition not met.

compound | assignedClass
COC(=O)C1=C(C)NC(C)=C(C(=O)OC)C1c1ccccc1[N+](=O)[O-] | condition met
CCOC(=O)c1ccc(C#Cc2ccc3c(c2)C(C)(C)CCS3)nc1 | condition not met
CN1CCN(C2=Nc3ccccc3Oc3ccc(Cl)cc32)CC1.O=C(O)CCC(=O)O [Loxapine Succinate] | condition not met

Is cell viability strictly under 100 for the entry C[C@@H]1C[C@H]2[C@H]3CCC4=CC(=O)C=C[C@]4(C)[C@@]3(F)[C@@H](O)C[C@]2(C)[C@@]1(O)C(=O)CO ?
condition not met

Is cell viability strictly under 100 for the entry C[N+](C)(CCOc1ccccc1)Cc1ccccc1.O=C(O)c1cc2ccccc2cc1[O-] [Bephenium Hydroxynaphthoate] ?
condition not met

Is cell viability strictly under 100 for the entry NCCS(=O)(=O)O ?
condition not met

Is cell viability strictly under 100 for the entry Cc1nnc(C(C)C)n1C1CC2CCC(C1)N2CCC(NC(=O)C1CCC(F)(F)CC1)c1ccccc1 (stereo unspecified) ?
condition not met

Is cell viability strictly under 100 for the entry CN1CCC(=C2c3ccccc3CC(=O)c3sccc32)CC1.O=C(O)C=CC(=O)O [Ketotifen Fumarate] ?
condition not met

Is cell viability strictly under 100 for the entry CNC(=O)c1cc(Oc2ccc(NC(=O)Nc3ccc(Cl)c(C(F)(F)F)c3)c(F)c2)ccn1.Cl [Regorafenib hydrochloride] ?
condition met

Is cell viability strictly under 100 for the entry CC(C)Cc1ccc(C(C)C(=O)O)cc1 (stereo unspecified) ?
condition not met

Is cell viability strictly under 100 for the entry CC(=O)Oc1ccccc1C(=O)O ?
condition not met

Is cell viability strictly under 100 for the entry CCCc1nn(C)c2c(=O)nc(-c3cc(S(=O)(=O)N4CCN(C)CC4)ccc3OCC)[nH]c12 ?
condition met

Is cell viability strictly under 100 for the entry CCOC(=O)C1=C(COCCN)NC(C)=C(C(=O)OC)C1c1ccccc1Cl (stereo unspecified) ?
condition met

----------
Tested on: HCI11 (cells of an ER-positive luminal breast cancer xenograft)
Experiment: cell viability (% of vehicle); higher = less cytotoxic
Details: 10 µM; 72 h
valueKind: cell viability
// no unit, no text: just the number

compound | cell viability
CCC(=O)OCC(=O)C1(OC(=O)CC)C(C)CC2C3CCC4=CC(=O)C=CC4(C)C3(F)C(O)CC21C (stereo not drawn) [Betamethasone Dipropionate] | 136
C#Cc1cccc(Nc2ncnc3cc(OCCOC)c(OCCOC)cc23)c1.Cl [Erlotinib Hydrochloride] | 104
N.N.[Cl][Pt+2][Cl] [Cisplatin] | 119
COc1cc2c(cc1OC)CC(=O)N(CCCN(C)CC1Cc3cc(OC)c(OC)cc31)CC2.Cl (stereo not drawn) [Ivabradine HCl] | 114
Cc1ncc(CO)c(CO)c1O.Cl [Pyridoxine HCl] | 91.9

Data request, read-out cell viability, for CC(=O)OCC[N+](C)(C)C.[Cl-] [Acetylcholine Chloride]
87.1

Data request, read-out cell viability, for CC(=O)OC1(C(C)=O)CCC2C3CC(C)C4=CC(=O)CCC4(C)C3CCC21C (stereo not drawn) [Medroxyprogesterone acetate]
78.4

Data request, read-out cell viability, for CN(C)CC=CC(=O)Nc1cc2c(Nc3ccc(F)c(Cl)c3)ncnc2cc1OC1CCOC1 (stereo not drawn)
73.5

----------
Test system: UCD52 (cells of a triple-negative basal-like breast cancer xenograft)
Test: cell viability of combination (% of vehicle); higher = less cytotoxic
Details: 1 µM; 72 h; partner dose: 10 nM
valueKind: cell viability of combination
// no unit, no text: just the number

compound | valueMeasured
Clc1ccc(C(Cn2ccnc2)OCc2ccc(Sc3ccccc3)cc2)c(Cl)c1.O=[N+]([O-])O (stereo not drawn) [Fenticonazole Nitrate] + CC(C)C[C@H](NC(=O)[C@H](CCc1ccccc1)NC(=O)CN1CCOCC1)C(=O)N[C@@H](Cc1ccccc1)C(=O)N[C@@H](CC(C)C)C(=O)[C@@]1(C)CO1 | 65.2
Cc1ccc(-n2[nH]c(C)c(NN=C3C=CC=C(c4cccc(C(=O)O)c4)C3=O)c2=O)cc1C [Eltrombopag] + CC(C)C[C@H](NC(=O)[C@H](CCc1ccccc1)NC(=O)CN1CCOCC1)C(=O)N[C@@H](Cc1ccccc1)C(=O)N[C@@H](CC(C)C)C(=O)[C@@]1(C)CO1 | 58.8

Request body: readout cell viability of combination, system UCD52, query CN1CCCC1CCOC(C)(c1ccccc1)c1ccc(Cl)cc1.O=C(O)C=CC(=O)O (stereo not drawn) [Clemastine Fumarate] + CC(C)C[C@H](NC(=O)[C@H](CCc1ccccc1)NC(=O)CN1CCOCC1)C(=O)N[C@@H](Cc1ccccc1)C(=O)N[C@@H](CC(C)C)C(=O)[C@@]1(C)CO1 . Return the value.
61.1

----------
Test system: HCI03 (cells of an ER-positive luminal breast cancer xenograft)
Test: cell viability (% of vehicle); higher = less cytotoxic
Conditions: 10 µM; 72 h
Counter-ions that a name gives are not always drawn.
This section presents compounds with their documented cell viability values.
// no unit, no text: just the number

Would you please look over these solved cases?
compound | cell viability
CC1(C)O[C@@H]2C[C@H]3[C@@H]4CCC5=CC(=O)CC[C@]5(C)[C@@]4(F)[C@@H](O)C[C@]3(C)[C@]2(C(=O)CCl)O1 [Halcinonide] | 144
C[N+](C)(C)CC(O)CC(=O)[O-] [L-Carnitine inner salt] | 119
COC(=O)Nc1nc2ccc(S(=O)c3ccccc3)cc2[nH]1 (configuration not stated) | 132

Data request, read-out cell viability, for O=C(NCC1CN(c2ccc(N3CCOCC3=O)cc2)C(=O)O1)c1ccc(Cl)s1 (configuration not stated)
119

Data request, read-out cell viability, for O=NN(CCCl)C(=O)NCCCl
166

Data request, read-out cell viability, for NC(=O)C1CCCc2c1[nH]c1ccc(Cl)cc21 (configuration not stated)
182

Data request, read-out cell viability, for CC12CCC(O)CC1=CCC1C2CCC2(C)C(n3cnc4ccccc43)=CCC12 (configuration not stated)
58.2

----------
Tested on: HCI03
Test: cell viability (% of vehicle); higher = less cytotoxic
Settings: 10 µM; 72 h
valueKind: cell viability
// no unit, no text: just the number

Would you please look over these solved cases?
compound | cell viability
CS(=O)(=O)c1ccc(C(O)C(CO)NC(=O)C(Cl)Cl)cc1 (stereo not drawn) [Thiamphenicol] | 104
Nc1ncnc2c1ncn2C1OC(CO)C(O)C1O (stereo not drawn) [Vidarabine] | 136
Cl.O=C1Cc2cc(CCN3CCN(c4nsc5ccccc45)CC3)c(Cl)cc2N1 [Ziprasidone HCl] | 78.6
COC(=O)C(c1ccccc1Cl)N1CCc2sccc2C1.O=S(=O)(O)O (stereo not drawn) [Clopidogrel] | 115
CC1c2cccc(O)c2C(O)=C2C(=O)C3(O)C(O)=C(C(N)=O)C(=O)C(N(C)C)C3C(O)C21.Cl (stereo not drawn) [Doxycycline hyclate] | 109

Data request, read-out cell viability, for O=C(O)c1cccnc1 [Nicotinic Acid]
119

Data request, read-out cell viability, for Nc1c(CC(=O)[O-])cccc1C(=O)c1ccc(Br)cc1.[Na+] [Bromfenac Sodium]
104

Data request, read-out cell viability, for Cl.N#Cc1ccc2[nH]cc(CCCCN3CCN(c4ccc5oc(C(N)=O)cc5c4)CC3)c2c1 [Vilazodone Hydrochloride]
103

----------
System: HCI16 (cells of a triple-negative basal-like breast cancer xenograft)
Assay: cell viability (% of vehicle); higher = less cytotoxic
Details: 10 µM; 72 h
This section presents compounds with their documented cell viability values.
// no unit, no text: just the number

Would you please look over these solved cases?
compound | cell viability
CCCNC(C)C(=O)Nc1ccccc1C.Cl (stereo not given) [Prilocaine hydrochloride] | 122
Nc1[nH]c(=O)ncc1F | 94.7
O=c1sn(-c2cccc3ccccc23)c(=O)n1Cc1ccccc1 | 94.7
NC(=O)N1CCC(CC(=O)N2CCC(C3c4ncc(Br)cc4CCc4cc(Cl)cc(Br)c43)CC2)CC1 (stereo not given) | 170
COc1cccc2c1C(=O)c1c(O)c3c(c(O)c1C2=O)CC(O)(C(=O)CO)CC3OC1CC(N)C(O)C(C)O1.Cl (stereo not given) [Epirubicin HCl] | 35.4

Data request, read-out cell viability, for CC(=O)N=c1sc(S(N)(=O)=O)nn1C [Methazolamide]
122

Data request, read-out cell viability, for Oc1ccc(OC2CCCCO2)cc1 (stereo not given)
145

Data request, read-out cell viability, for CCN(CCO)CCCC(C)Nc1ccnc2cc(Cl)ccc12.O=S(=O)(O)O (stereo not given) [Hydroxychloroquine Sulfate]
86.5

Data request, read-out cell viability, for C[C@@H]1C[C@H]2[C@H]3CCC4=CC(=O)C=C[C@]4(C)[C@@]3(F)[C@@H](O)C[C@]2(C)[C@@]1(O)C(=O)CO
180

Data request, read-out cell viability, for COc1ccc(-c2ccc3cc(C(=O)O)ccc3c2)cc1C12CC3CC(CC(C3)C1)C2
82.7

Data request, read-out cell viability, for Cl.O=C(CCCN1CCC(O)(c2ccc(Cl)cc2)CC1)c1ccc(F)cc1 [Haloperidol hydrochloride]
127

Data request, read-out cell viability, for Cc1cc(C2CCCCC2)n(O)c(=O)c1.NCCO
123

Data request, read-out cell viability, for Nc1c(CC(=O)[O-])cccc1C(=O)c1ccc(Br)cc1.[Na+] [Bromfenac Sodium]
96.2

Data request, read-out cell viability, for Cl.c1ccc2c(c1)CCCC2C1=NCCN1 (stereo not given) [Tetrahydrozoline HCl]
108

Data request, read-out cell viability, for CN(C)CCCOc1nn(Cc2ccccc2)c2ccccc12.Cl [Benzydamine HCl]
163
